Overview of reported Ki across a group of molecules:
# MEASUREMENT TARGET: Adrenergic receptor alpha-1 (Rattus norvegicus, UniProt P15823+P23944+P43140)
# PROTOCOL DESCRIPTION: Binding affinity against Alpha-1 adrenergic receptor using radioligand [3H]prazosin binding assay.
# Assay type: protein assay
// note: answer is a bare numeric in nM

Worked cases, answers included:
SMILES DATA	MEASUREMENT TARGET	READING UNIT	RECORDED RESULT
Nc1ccc(C#CCCN2CC=C(c3ccccc3)CC2)cc1	Adrenergic receptor alpha-1 (Rattus norvegicus, UniProt P15823+P23944+P43140)	nM	34.5
C(#Cc1cccnc1)CCN1CC=C(c2ccccc2)CC1	Adrenergic receptor alpha-1 (Rattus norvegicus, UniProt P15823+P23944+P43140)	nM	14.1
Nc1ccc(C#CCCN2CC=C(c3ccccc3)CC2)nc1	Adrenergic receptor alpha-1 (Rattus norvegicus, UniProt P15823+P23944+P43140)	nM	57.5
Nc1cccc(C#CCCN2CC=C(c3ccccc3)CC2)c1	Adrenergic receptor alpha-1 (Rattus norvegicus, UniProt P15823+P23944+P43140)	nM	107

// map `C(#Cc1ccncc1)CCN1CC=C(c2ccccc2)CC1` to recorded Ki (system: Adrenergic receptor alpha-1 (Rattus norvegicus, UniProt P15823+P23944+P43140))
25.8
